- Tested on: Plasmodium berghei
- assay.info: Luciferase/luciferin-expressing antifolate-resistant parasites were used to infect a culture of HepG2 cells that were pre-incubated with compounds. Infected hepatocytes emit light due to the luciferase reaction. Assay results are presented as the percent inhibition of light emission compared to control. […]
- Format: functional
- run.conditions: sporozoite, HEPG2TOX_HILL_SLOPE 1.38, HEPG2TOX_R_SQUARED 0.755, PBLUC_HILL_SLOPE 7.68, PBLUC_R_SQUARED 0.272, read-out: LUCIFERASE INFECTION ASSAY - IC50
measured.parameter: IC50 (µM)
Dear colleague, please return just the value in µM, with no unit written.

Prompt: Name the recorded IC50 for `CC(C)(C)c1csc(NC(=O)Nc2ccccc2)n1` .
Completion: 9.6

----------
- System: Plasmodium berghei
- assay.info: Luciferase/luciferin-expressing antifolate-resistant parasites were used to infect a culture of HepG2 cells that were pre-incubated with compounds. Infected hepatocytes emit light due to the luciferase reaction. Assay results are presented as the percent inhibition of light emission compared to control. […]
- Assay type: functional
- run.conditions: sporozoite, HEPG2TOX_HILL_SLOPE 8.57, HEPG2TOX_R_SQUARED 0.799, PBLUC_HILL_SLOPE 12, PBLUC_R_SQUARED 0.743, read-out: LUCIFERASE INFECTION ASSAY - IC50
measured.parameter: pIC50
# pIC50 = -log10(concentration in molar units)

Prompt: Can you share its pIC50? I mean this compound: Clc1ccc(CSC2=NNC(c3ccccn3)S2)cc1 (stereo unspecified)
Completion: 5.10

----------
- Test system: Plasmodium berghei
- assay.info: Luciferase/luciferin-expressing antifolate-resistant parasites were used to infect a culture of HepG2 cells that were pre-incubated with compounds. Infected hepatocytes emit light due to the luciferase reaction. Assay results are presented as the percent inhibition of light emission compared to control. […]
- Assay type: functional
- run.conditions: sporozoite, PBLUC_HILL_SLOPE 25.9, PBLUC_R_SQUARED 0.261, read-out: LUCIFERASE INFECTION ASSAY - IC50
measured.parameter: IC50 (µM)
Output spec: scalar in µM, unitless text.

Prompt: Enter reported IC50 observed with Plasmodium berghei for NC(Cc1ccc(C(F)(F)F)cc1)c1csc(NC(=O)Nc2ccccc2Cc2ccccc2)n1 (stereo unspecified)
Completion: 5.82

----------
- System: Plasmodium berghei
- assay.info: Luciferase/luciferin-expressing antifolate-resistant parasites were used to infect a culture of HepG2 cells that were pre-incubated with compounds. Infected hepatocytes emit light due to the luciferase reaction. Assay results are presented as the percent inhibition of light emission compared to control. […]
- Format: functional
- run.conditions: sporozoite, PBLUC_HILL_SLOPE 0.7, PBLUC_R_SQUARED 0.683, read-out: LUCIFERASE INFECTION ASSAY - IC50
measured.parameter: pIC50
# pIC50: negative log10 of molar concentration; output just the value

Prompt: Recorded pIC50 of `CCCCn1c(N)c(-c2nc(CC(C)(C)C)c(C(=O)c3ccc(Br)s3)s2)c(=O)n(C)c1=O` , please.
Completion: 5.56

----------
- System: Plasmodium berghei
- assay.info: Luciferase/luciferin-expressing antifolate-resistant parasites were used to infect a culture of HepG2 cells that were pre-incubated with compounds. Infected hepatocytes emit light due to the luciferase reaction. Assay results are presented as the percent inhibition of light emission compared to control. […]
- Format: functional
- run.conditions: sporozoite, HEPG2TOX_HILL_SLOPE 0.0389, HEPG2TOX_R_SQUARED 0.0745, PBLUC_HILL_SLOPE 3.06, PBLUC_R_SQUARED 0.597, read-out: LUCIFERASE INFECTION ASSAY - IC50
measured.parameter: pIC50
Please report pIC50 as the negative decimal logarithm of the molar concentration, giving only the number.

Prompt: Please look up its pIC50: `O=C(NC1CC1)c1ccc(-c2cnc3cnc(-c4ccsc4)cn23)cc1`
Completion: 5.14
